The reported numbers originate from patent US10160753B2.

# Target under test: recombinant IRAK-4 kinase (Homo sapiens, UniProt Q9NWZ3)
# Sequence (Q9NWZ3 1-460): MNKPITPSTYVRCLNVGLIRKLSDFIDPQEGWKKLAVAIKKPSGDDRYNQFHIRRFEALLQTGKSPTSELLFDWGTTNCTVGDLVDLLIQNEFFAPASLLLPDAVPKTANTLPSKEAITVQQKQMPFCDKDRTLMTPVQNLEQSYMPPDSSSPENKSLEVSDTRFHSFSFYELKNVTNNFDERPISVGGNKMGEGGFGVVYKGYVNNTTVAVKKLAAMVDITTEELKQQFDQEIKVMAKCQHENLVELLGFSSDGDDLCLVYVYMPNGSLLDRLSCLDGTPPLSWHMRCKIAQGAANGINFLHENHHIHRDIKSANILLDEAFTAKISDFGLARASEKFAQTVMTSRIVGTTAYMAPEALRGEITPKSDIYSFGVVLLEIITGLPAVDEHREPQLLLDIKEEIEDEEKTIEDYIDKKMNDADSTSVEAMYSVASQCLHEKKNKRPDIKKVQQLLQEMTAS
# Assay notes: IRAK-4 Biochemical Assay (TR-FRET)
# Condition details: 30 min pre-incubation, 100 nM Biotin Histone H3, 20 μM ATP, read-out: IC50 values for IRAK4 activity
# Experimental: Compounds were tested for their potential to inhibit IRAK-4 enzyme in a TR-FRET assay using recombinant IRAK-4 kinase from Millipore, USA. The assay buffer was 50 mM Tris-HCl pH 7.5, 20 mM MgCl2, 1 mM EGTA, 2 mM DTT, 3 mM MnCl2 and 0.01% Tween 20.5 ng of IRAK-4 kinase was used for the assay. […] The fluorescence emission at 615 nm and 665 nm were measured at an excitation of 340 nm and the percent inhibition was estimated from the ratio of the fluorescence intensities [(F665/F615)×10000]. […]
Counter-ions that a name gives are not always drawn.
Recorded endpoint: IC50

Reference set (4 entries):
Which IC50 is reported for this molecule? CCOP(=O)(OCC)OC1CCN(c2cc3c(cnn3C)cc2NC(=O)c2coc(-c3ccnc(C)c3)n2)CC1 [Example 128] 0.05 to 0.1 µM

Consider the molecule shown here: Cn1cc2cc(NC(=O)c3cccc(-c4cn[nH]c4)n3)c(N3CCCCC3)cc2n1 [Example 1] What is its recorded IC50? < 0.05 µM

Tell me the measured IC50 of Cc1cc(-c2nc(C(=O)Nc3cc4cn(C)nc4cc3N3CCCC(F)C3)co2)ccn1 (stereo not shown) [Example 79] , please. < 0.05 µM

Entry under review: Cn1cc2cc(NC(=O)c3coc(-c4ccnc(N)c4)n3)c(N3CCCC(O)C3)cc2n1 (stereo not shown) [Example 102, hydrochloride] . Reported IC50? < 0.05 µM

New cases:
// lookup IC50 for Cc1cc(-c2nc(C(=O)Nc3cc4cn(C)nc4cc3N3CCCC3)co2)ccn1 [Example 63] < 0.05 µM

For the molecule Cn1cc2cc(NC(=O)c3cccc(-c4ccc(F)nc4)n3)c(N3CCCCC3)cc2n1 [Example 12, hydrochloride] , what IC50 is on record? < 0.05 µM

GET /values?readout=IC50&item= CC(=O)Nc1cc(-c2nc(C(=O)Nc3cc4cn(C)nc4cc3N3CCC(CO)CC3)co2)ccn1 [Example 98] < 0.05 µM

Fill in: IC50 of Cn1cc2cc(NC(=O)c3coc(N4CC[C@H](N)C4)n3)c(N3CCCCC3)cc2n1 [Example 44] is ___ < 0.05 µM

Please report the recorded IC50 for Cc1cnccc1-c1nc(C(=O)Nc2cc3cn(C)nc3cc2N2CCCCC2)co1 [Example 22] . < 0.05 µM

IC50 for Cc1ccc(C(=O)Nc2cc3cn(C)nc3cc2N2CCCCC2)nc1-c1ccc(N)nc1 [Example 29, hydrochloride] ? < 0.05 µM

Request the reported IC50 associated with CN(C)c1cc(-c2nc(C(=O)Nc3cc4cn(C)nc4cc3N3CCCCC3)co2)ccn1 [Example 120, hydrochloride] < 0.05 µM

Could you tell me which IC50 is on file for C[C@H](O)Cn1cc(-c2cccc(C(=O)Nc3cc4cnn(C)c4cc3N3CCC(CO)CC3)n2)cn1 [Example 95] ? > 0.1 µM
